For POLRMT (Homo sapiens (Human)), measured IC50 is reported for the entries below.
One number for each entry, in nM.

Illustrative cases are given below, each with its answer.
- Compound: "COCC(Nc1ccc2c(-c3ccccc3C)cc(=O)oc2c1)C(N)=O (stereo not drawn)"
  IC50, nM: 800
- Compound: "Cc1ccccc1-c1cc(=O)oc2cc(CC(C)C(=O)N3CCC(C(=O)O)CC3)ccc12 (single isomer, unassigned)"
  IC50, nM: 200
- Compound: "CC(=O)N(C)c1ccc2c(-c3ccccc3C)cc(=O)oc2c1"
  IC50, nM: 12000
- Compound: "Cc1ccccc1-c1cc(=O)oc2cc(CNC(=O)C3CCC(C(=O)O)CC3)ccc12 (stereo not drawn)"
  IC50, nM: 300
- Compound: "Cc1ccccc1-c1cc(=O)oc2cc(CC(=O)O)ccc12"
  IC50, nM: 5000

Next up:
IC50 measured on Cc1ccccc1-c1cc(=O)oc2cc(C(=O)N(C)C3CCCOC3)ccc12 (stereo not drawn) = 65000
